target: URAT1 (Homo sapiens (Human), UniProt Q96S37); experiment: Inhibition of [8-14C] uric acid uptake by HEK293 cells stably expressing URAT1, test compounds at 10 μM; format: cell-based; conditions: 10 μM test compound; HEK293 cells stably expressing URAT1; 30 μM [8-14C] uric acid, 2 min; read-out: Inhibition rate (%)
Sequence (Q96S37 whole entry): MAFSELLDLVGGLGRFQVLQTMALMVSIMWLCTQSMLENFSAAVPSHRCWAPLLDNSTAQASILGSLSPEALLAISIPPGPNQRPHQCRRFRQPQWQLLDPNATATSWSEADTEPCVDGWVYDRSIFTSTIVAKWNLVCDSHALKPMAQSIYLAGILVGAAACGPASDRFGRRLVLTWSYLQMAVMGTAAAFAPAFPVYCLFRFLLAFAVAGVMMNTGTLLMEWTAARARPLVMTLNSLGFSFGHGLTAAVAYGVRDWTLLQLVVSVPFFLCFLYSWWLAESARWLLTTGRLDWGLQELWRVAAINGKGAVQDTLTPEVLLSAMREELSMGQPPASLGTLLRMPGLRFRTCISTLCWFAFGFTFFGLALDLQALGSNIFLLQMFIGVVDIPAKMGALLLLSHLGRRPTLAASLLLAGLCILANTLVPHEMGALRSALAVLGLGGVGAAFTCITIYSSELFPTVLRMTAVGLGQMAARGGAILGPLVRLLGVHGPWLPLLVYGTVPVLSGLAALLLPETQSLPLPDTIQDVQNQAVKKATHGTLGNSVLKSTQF
TEST READOUT: inhibition at 10 µM (%)

{"COMPOUND": "O=C(O)CSc1nnc(F)n1Cc1ccc(C2CC2)c2ccccc12 [Compound of Example 4]", "TEST SYSTEM": "URAT1 (Homo sapiens (Human), UniProt Q96S37)", "DISPLAY UNIT": "%", "MEASUREMENT": 62}
{"COMPOUND": "N#Cc1ccc(Cn2c(Br)nnc2SCC(=O)O)c2ccccc12 [Compound of Example 14]", "TEST SYSTEM": "URAT1 (Homo sapiens (Human), UniProt Q96S37)", "DISPLAY UNIT": "%", "MEASUREMENT": 84}
{"COMPOUND": "CC(C)(Sc1nnc(Br)n1Cc1cccc2ccccc12)C(=O)O [Compound of Example 22]", "TEST SYSTEM": "URAT1 (Homo sapiens (Human), UniProt Q96S37)", "DISPLAY UNIT": "%", "MEASUREMENT": 77}
{"COMPOUND": "CCc1ccc(Cn2c(Br)nnc2CCC(=O)O)c2ccccc12 [Compound of Example 37]", "TEST SYSTEM": "URAT1 (Homo sapiens (Human), UniProt Q96S37)", "DISPLAY UNIT": "%", "MEASUREMENT": 84}
{"COMPOUND": "CCc1ccc(Cn2c(Br)nnc2SCC(=O)O)c2ccccc12 [Compound of Example 9]", "TEST SYSTEM": "URAT1 (Homo sapiens (Human), UniProt Q96S37)", "DISPLAY UNIT": "%", "MEASUREMENT": 84}
{"COMPOUND": "O=C(O)CSc1nnc(Br)n1Cc1ccc(F)c2ccccc12 [Compound of Example 12]", "TEST SYSTEM": "URAT1 (Homo sapiens (Human), UniProt Q96S37)", "DISPLAY UNIT": "%", "MEASUREMENT": 76}
{"COMPOUND": "Cc1ccc(Cn2c(Br)nnc2CC(C)(C)C(=O)O)c2ccccc12 [Compound of Example 46]", "TEST SYSTEM": "URAT1 (Homo sapiens (Human), UniProt Q96S37)", "DISPLAY UNIT": "%", "MEASUREMENT": 84}
{"COMPOUND": "CC(C)(Sc1nncn1Cc1ccc(C2CC2)c2ccccc12)C(=O)O [Compound of Example 18]", "TEST SYSTEM": "URAT1 (Homo sapiens (Human), UniProt Q96S37)", "DISPLAY UNIT": "%", "MEASUREMENT": 78}
{"COMPOUND": "O=C(O)CSc1nnc(Br)n1Cc1cccc2ccccc12 [Compound of Example 7]", "TEST SYSTEM": "URAT1 (Homo sapiens (Human), UniProt Q96S37)", "DISPLAY UNIT": "%", "MEASUREMENT": 83}
{"COMPOUND": "O=C(O)CSc1nncn1Cc1ccc(C2CC2)c2ccccc12 [Compound of Example 3]", "TEST SYSTEM": "URAT1 (Homo sapiens (Human), UniProt Q96S37)", "DISPLAY UNIT": "%", "MEASUREMENT": 60}
{"COMPOUND": "CCc1ccc(Cn2c(Br)nnc2SC(C)(C)C(=O)O)c2ccccc12 [Compound of Example 24]", "TEST SYSTEM": "URAT1 (Homo sapiens (Human), UniProt Q96S37)", "DISPLAY UNIT": "%", "MEASUREMENT": 84}
{"COMPOUND": "CC(C)c1ccc(Cn2c(Br)nnc2SCC(=O)O)c2ccccc12 [Compound of Example 11]", "TEST SYSTEM": "URAT1 (Homo sapiens (Human), UniProt Q96S37)", "DISPLAY UNIT": "%", "MEASUREMENT": 91}
{"COMPOUND": "CC(C)(Sc1nnc(I)n1Cc1ccc(C2CC2)c2ccccc12)C(=O)O [Compound of Example 21]", "TEST SYSTEM": "URAT1 (Homo sapiens (Human), UniProt Q96S37)", "DISPLAY UNIT": "%", "MEASUREMENT": 82}
{"COMPOUND": "CC(C)(Cc1nnc(F)n1Cc1ccc(C2CC2)c2ccccc12)C(=O)O [Compound of Example 43]", "TEST SYSTEM": "URAT1 (Homo sapiens (Human), UniProt Q96S37)", "DISPLAY UNIT": "%", "MEASUREMENT": 80}
{"COMPOUND": "CCc1ccc(Cn2c(Br)nnc2CC(C)(C)C(=O)O)c2ccccc12 [Compound of Example 47]", "TEST SYSTEM": "URAT1 (Homo sapiens (Human), UniProt Q96S37)", "DISPLAY UNIT": "%", "MEASUREMENT": 85}
{"COMPOUND": "COc1ccc(Cn2c(Br)nnc2SCC(=O)O)c2ccccc12 [Compound of Example 16]", "TEST SYSTEM": "URAT1 (Homo sapiens (Human), UniProt Q96S37)", "DISPLAY UNIT": "%", "MEASUREMENT": 81}

----------
target: UniProt:Q96S37; assay: IC50 for inhibition of the test compounds on URAT1 (nine concentration points, 0.001-10 μM); details: HEK293 cells stably expressing URAT1; [8-14C] uric acid uptake; nine concentrations 0.001-10 μM
pIC50: −log10 of the molar value.
TEST READOUT: pIC50

{"ITEM SMILES": "CCCc1ccc(Cn2c(Br)nnc2CC(C)(C)C(=O)O)c2ccccc12", "TEST SYSTEM": "UniProt:Q96S37", "MEASUREMENT": 6.29}

(1) O=C(O)CCc1nnc(Br)n1Cc1ccc(C2CC2)c2ccccc12
(2) CCCc1ccc(Cn2c(Br)nnc2SC(C)(C)C(=O)O)c2ccccc12
Query string: # return whichever of 1 and 2 has the smaller pIC50 Give the label under which the chosen entry appears.
Result string: 2

(P) CCCc1ccc(Cn2c(Br)nnc2SCC(=O)O)c2ccccc12
(Q) CC(C)(Sc1nnc(Br)n1Cc1ccc(C2CC2)c2ccccc12)C(=O)O
(R) O=C(O)CSc1nnc(I)n1Cc1ccc(C2CC2)c2ccccc12
(S) O=C(O)CSc1nnc(Br)n1Cc1ccc(C2CC2)c2ccccc12
Query string: List the 4 entries from lowest pIC50 to highest pIC50 value. Hello, could you send the labels back in the order asked? Thank you.
Result string: Q, R, S, P

----------
target: URAT1 (Homo sapiens (Human)); assay: Inhibition of [8-14C] uric acid uptake by HEK293 cells stably expressing URAT1, test compounds at 10 μM; type: cell-based; conditions: 10 μM test compound; HEK293 cells stably expressing URAT1; 30 μM [8-14C] uric acid, 2 min; read-out: Inhibition rate (%)
TEST READOUT: inhibition at 10 µM (%)

{"ITEM SMILES": "CC(C)(Cc1nnc(Br)n1Cc1ccc(C2CC2)c2ccccc12)C(=O)O", "inhibition at 10 µM [%]": 94}
{"ITEM SMILES": "CC(C)(Cc1nncn1Cc1ccc(C2CC2)c2ccccc12)C(=O)O", "inhibition at 10 µM [%]": 71}
{"ITEM SMILES": "CC(C)(Cc1nnc(I)n1Cc1ccc(C2CC2)c2ccccc12)C(=O)O", "inhibition at 10 µM [%]": 82}
{"ITEM SMILES": "CC(C)(Cc1nnc(Cl)n1Cc1ccc(C2CC2)c2ccccc12)C(=O)O", "inhibition at 10 µM [%]": 81}
{"ITEM SMILES": "CCCc1ccc(Cn2c(Br)nnc2CCC(=O)O)c2ccccc12", "inhibition at 10 µM [%]": 86}
{"ITEM SMILES": "CCCc1ccc(Cn2c(Br)nnc2SCC(=O)O)c2ccccc12", "inhibition at 10 µM [%]": 85}
{"ITEM SMILES": "Cc1ccc(Cn2c(Br)nnc2CCC(=O)O)c2ccccc12", "inhibition at 10 µM [%]": 82}
{"ITEM SMILES": "CC(C)(Sc1nnc(Br)n1Cc1ccc(Cl)c2ccccc12)C(=O)O", "inhibition at 10 µM [%]": 77}
{"ITEM SMILES": "O=C(O)CCc1nnc(Br)n1Cc1ccc(Br)c2ccccc12", "inhibition at 10 µM [%]": 93}
{"ITEM SMILES": "O=C(O)CCc1nnc(I)n1Cc1ccc(C2CC2)c2ccccc12", "inhibition at 10 µM [%]": 84}
{"ITEM SMILES": "CC(C)(Sc1nnc(Br)n1Cc1ccc(F)c2ccccc12)C(=O)O", "inhibition at 10 µM [%]": 83}
{"ITEM SMILES": "O=C(O)CSc1nnc(Br)n1Cc1ccc(Cl)c2ccccc12", "inhibition at 10 µM [%]": 75}
{"ITEM SMILES": "O=C(O)CSc1nnc(Cl)n1Cc1ccc(C2CC2)c2ccccc12", "inhibition at 10 µM [%]": 76}
{"ITEM SMILES": "COc1ccc(Cn2c(Br)nnc2SC(C)(C)C(=O)O)c2ccccc12", "inhibition at 10 µM [%]": 84}
{"ITEM SMILES": "CC(C)(Sc1nnc(Br)n1Cc1ccc(C#N)c2ccccc12)C(=O)O", "inhibition at 10 µM [%]": 89}
{"ITEM SMILES": "CC(C)(Sc1nnc(Cl)n1Cc1ccc(C2CC2)c2ccccc12)C(=O)O", "inhibition at 10 µM [%]": 86}
{"ITEM SMILES": "Cc1ccc(Cn2c(Br)nnc2SCC(=O)O)c2ccccc12", "inhibition at 10 µM [%]": 83}
{"ITEM SMILES": "O=C(O)CCc1nncn1Cc1ccc(C2CC2)c2ccccc12", "inhibition at 10 µM [%]": 67}
{"ITEM SMILES": "O=C(O)CCc1nnc(Cl)n1Cc1ccc(C2CC2)c2ccccc12", "inhibition at 10 µM [%]": 88}
{"ITEM SMILES": "CC(C)(Sc1nnc(Br)n1Cc1ccc(C2CC2)c2ccccc12)C(=O)O", "inhibition at 10 µM [%]": 93}
{"ITEM SMILES": "CC(C)(Sc1nnc(F)n1Cc1ccc(C2CC2)c2ccccc12)C(=O)O", "inhibition at 10 µM [%]": 82}
{"ITEM SMILES": "CC(C)c1ccc(Cn2c(Br)nnc2SC(C)(C)C(=O)O)c2ccccc12", "inhibition at 10 µM [%]": 91}
{"ITEM SMILES": "CC(C)c1ccc(Cn2c(Br)nnc2CCC(=O)O)c2ccccc12", "inhibition at 10 µM [%]": 92}
{"ITEM SMILES": "O=C(O)CSc1nnc(I)n1Cc1ccc(C2CC2)c2ccccc12", "inhibition at 10 µM [%]": 78}
{"ITEM SMILES": "CC(C)(Cc1nnc(Br)n1Cc1ccc(C#N)c2ccccc12)C(=O)O", "inhibition at 10 µM [%]": 92}
{"ITEM SMILES": "CC(C)(Sc1nnc(Br)n1Cc1ccc([N+](=O)[O-])c2ccccc12)C(=O)O", "inhibition at 10 µM [%]": 81}
{"ITEM SMILES": "O=C(O)CCc1nnc(F)n1Cc1ccc(C2CC2)c2ccccc12", "inhibition at 10 µM [%]": 68}
{"ITEM SMILES": "CCCc1ccc(Cn2c(Br)nnc2SC(C)(C)C(=O)O)c2ccccc12", "inhibition at 10 µM [%]": 80}
{"ITEM SMILES": "CC(C)c1ccc(Cn2c(Br)nnc2CC(C)(C)C(=O)O)c2ccccc12", "inhibition at 10 µM [%]": 93}
{"ITEM SMILES": "O=C(O)CSc1nnc(Br)n1Cc1ccc([N+](=O)[O-])c2ccccc12", "inhibition at 10 µM [%]": 70}
{"ITEM SMILES": "Cc1ccc(Cn2c(Br)nnc2SC(C)(C)C(=O)O)c2ccccc12", "inhibition at 10 µM [%]": 83}
{"ITEM SMILES": "CCCc1ccc(Cn2c(Br)nnc2CC(C)(C)C(=O)O)c2ccccc12", "inhibition at 10 µM [%]": 85}
{"ITEM SMILES": "N#Cc1ccc(Cn2c(Br)nnc2CCC(=O)O)c2ccccc12", "inhibition at 10 µM [%]": 92}
